Source of measurements: a melting point compilation (Tetko et al.; mined from patent text by program, amines drawn as free bases though some values may be those of a salt)

Exercise: for every item that follows, state its recorded melting point.

q: Which melting point is listed for CCOC(=O)C(=NOC)c1nc(N)cc(Sc2ccccc2)n1 ?
a: 154 to 156 °C

q: Query (compound): CCc1nnc(C=Cc2ncc([N+](=O)[O-])n2C)s1 ; field requested: melting point
a: 165 °C

q: What melting point value was documented for this compound, CCN1CCN(CC)c2cc(Nc3nc(Cl)ncc3Cl)ccc2C1 ?
a: 69 to 73 °C

q: // lookup melting point for COC1CC(CNC(=O)Nc2ccc([N+](=O)[O-])cc2)C(OC)O1 (stereo not given)
a: 172 to 174 °C

q: Recorded melting point for CC(C)C1(C)N=C(c2ncccc2C(=O)O)N(C#N)C1=O (stereo not given) , please?
a: 150 to 153 °C
